Recorded MCC values for a group of compounds are listed next.
test: Cytotoxicity against HEL cells assessed as alteration of cell morphology; type: cell-based; conditions: human
PARAMETER MEASURED: MCC

> print(dat)
                    structure.smiles.string  parameter.measured  value.reported
1  CCCCCc1ccc(-c2cc3cn([C@H]4C[C@H](O)[C@@H](COC(=O)[C@@H](NC(=O)[C@@H]5CCCN5C(=O)[C@@H](N)C(C)C)C(C)C)O4)c(=O)nc3o2)cc1                 MCC       > 2000 nM
2  CCCCCc1ccc(-c2cc3cn([C@H]4C[C@H](O)[C@@H](COC(=O)[C@@H](NC(=O)[C@@H]5CCCN5C(=O)[C@@H](N)CC(=O)O)C(C)C)O4)c(=O)nc3o2)cc1                 MCC       > 5000 nM
3  CCCCCc1ccc(-c2cc3cn([C@H]4C[C@H](O)[C@@H](COC(=O)[C@@H](NC(=O)[C@@H]5CCCN5C(=O)[C@@H](N)CCCCN)C(C)C)O4)c(=O)nc3o2)cc1                 MCC       > 5000 nM
4  CCCCCc1ccc(-c2cc3cn([C@H]4C[C@H](O)[C@@H](COC(=O)[C@H](Cc5ccccc5)NC(=O)[C@@H]5CCCN5C(=O)[C@@H](N)C(C)C)O4)c(=O)nc3o2)cc1                 MCC        > 500 nM
5  CCCCCc1ccc(-c2cc3cn([C@H]4C[C@H](O)[C@@H](COC(=O)[C@H](CC(C)C)NC(=O)[C@@H]5CCCN5C(=O)[C@@H](N)C(C)C)O4)c(=O)nc3o2)cc1                 MCC        > 500 nM

###

Recorded remaining at 24 h values for a group of compounds are listed next.
assay: Chemical stability of the compound in PBS buffer at pH 7.4 assessed as compound remaining after 24 hrs by HPLC; type: physicochemical; settings: read-out: Stability

STRUCTURE SMILES STRING	remaining at 24 h
CCCCCc1ccc(-c2cc3cn([C@H]4C[C@H](O)[C@@H](COC(=O)[C@@H](NC(=O)[C@@H]5CCCN5C(=O)[C@@H](N)CC(N)=O)C(C)C)O4)c(=O)nc3o2)cc1	> 95%
CCCCCc1ccc(-c2cc3cn([C@H]4C[C@H](O)[C@@H](COC(=O)[C@H](Cc5ccccc5)NC(=O)[C@@H]5CCCN5C(=O)[C@@H](N)C(C)C)O4)c(=O)nc3o2)cc1	52%
CCCCCc1ccc(-c2cc3cn([C@H]4C[C@H](OC(=O)[C@@H](NC(=O)[C@@H]5CCCN5C(=O)[C@@H](N)C(C)C)C(C)C)[C@@H](CO)O4)c(=O)nc3o2)cc1	> 95%
CCCCCc1ccc(-c2cc3cn([C@H]4C[C@H](O)[C@@H](COC(=O)[C@@H](NC(=O)[C@@H]5CCCN5C(=O)[C@@H](N)CCCCN)C(C)C)O4)c(=O)nc3o2)cc1	> 95%
CCCCCc1ccc(-c2cc3cn([C@H]4C[C@H](O)[C@@H](COC(=O)[C@H](CC(C)C)NC(=O)[C@@H]5CCCN5C(=O)[C@@H](N)C(C)C)O4)c(=O)nc3o2)cc1	69%
CCCCCc1ccc(-c2cc3cn([C@H]4C[C@H](O)[C@@H](COC(=O)[C@@H](NC(=O)[C@@H]5CCCN5C(=O)[C@@H](N)CC(=O)O)C(C)C)O4)c(=O)nc3o2)cc1	> 95%
CCCCCc1ccc(-c2cc3cn([C@H]4C[C@H](O)[C@@H](COC(=O)[C@@H](NC(=O)[C@@H]5CCCN5C(=O)[C@@H](N)C(C)C)C(C)C)O4)c(=O)nc3o2)cc1	> 95%
CCCCCc1ccc(-c2cc3cn([C@H]4C[C@H](O)[C@@H](COC(=O)[C@H](C)NC(=O)[C@@H]5CCCN5C(=O)[C@@H](N)C(C)C)O4)c(=O)nc3o2)cc1	74%
CCCCCc1ccc(-c2cc3cn([C@H]4C[C@H](OC(=O)[C@@H](NC(=O)[C@@H]5CCCN5C(=O)[C@@H](N)C(C)C)C(C)C)[C@@H](COC(=O)[C@@H](NC(=O)[C@@H]5CCCN5C(=O)[C@@H](N)C(C)C)C(C)C)O4)c(=O)nc3o2)cc1	> 95%

###

tested on: Mus musculus; experiment: Bioavailability in mouse assessed as fold increase in 3-[(2R,4S, 5R)-4-hydroxy-5-(hydroxymethyl)oxolan-2-yl]-6-(4-pentylphenyl)furo[2, 3-d]pyrimidin-2-one level within 0 to 180 mins administered by oral gavage; format: ADME, organism-based; details: in vivo
Kindly return y if reported fold change (FC) is no lower than 10; return n if it is lower.

STRUCTURE SMILES STRING	GROUP LABEL
CCCCCc1ccc(-c2cc3cn([C@H]4C[C@H](O)[C@@H](COC(=O)[C@H](CC(C)C)NC(=O)[C@@H]5CCCN5C(=O)[C@@H](N)C(C)C)O4)c(=O)nc3o2)cc1	y
CCCCCc1ccc(-c2cc3cn([C@H]4C[C@H](O)[C@@H](COC(=O)[C@@H](NC(=O)[C@@H]5CCCN5C(=O)[C@@H](N)C(C)C)C(C)C)O4)c(=O)nc3o2)cc1	y
CCCCCc1ccc(-c2cc3cn([C@H]4C[C@H](OC(=O)[C@@H](NC(=O)[C@@H]5CCCN5C(=O)[C@@H](N)C(C)C)C(C)C)[C@@H](CO)O4)c(=O)nc3o2)cc1	n
CCCCCc1ccc(-c2cc3cn([C@H]4C[C@H](O)[C@@H](COC(=O)[C@@H](NC(=O)[C@@H]5CCCN5C(=O)[C@@H](N)CCCCN)C(C)C)O4)c(=O)nc3o2)cc1	y
CCCCCc1ccc(-c2cc3cn([C@H]4C[C@H](OC(=O)[C@@H](NC(=O)[C@@H]5CCCN5C(=O)[C@@H](N)C(C)C)C(C)C)[C@@H](COC(=O)[C@@H](NC(=O)[C@@H]5CCCN5C(=O)[C@@H](N)C(C)C)C(C)C)O4)c(=O)nc3o2)cc1	y

###

test: Stability of the compound assessed as conversion of prodrug to 3-[(2R,4S, 5R)-4-hydroxy-5-(hydroxymethyl)oxolan-2-yl]-6-(4-pentylphenyl)furo[2, 3-d]pyrimidin-2-one in presence of Dipeptidyl-peptidase 4 and 20 % human serum; format: physicochemical
PARAMETER MEASURED: Activity

> print(dat)
                    structure.smiles.string  value.reported
1  CCCCCc1ccc(-c2cc3cn([C@H]4C[C@H](O)[C@@H](COC(=O)[C@H](C)NC(=O)[C@@H]5CCCN5C(=O)[C@@H](N)C(C)C)O4)c(=O)nc3o2)cc1          Active
2  CCCCCc1ccc(-c2cc3cn([C@H]4C[C@H](O)[C@@H](COC(=O)[C@H](CC(C)C)NC(=O)[C@@H]5CCCN5C(=O)[C@@H](N)C(C)C)O4)c(=O)nc3o2)cc1          Active
3  CCCCCc1ccc(-c2cc3cn([C@H]4C[C@H](O)[C@@H](COC(=O)[C@H](Cc5ccccc5)NC(=O)[C@@H]5CCCN5C(=O)[C@@H](N)C(C)C)O4)c(=O)nc3o2)cc1          Active

###

experiment: Aqueous solubility of the compound at 25 DegC after 24 hrs; assay type: physicochemical; settings: water

COMPOUND	solubility at 24 h [µg/mL]
CCCCCc1ccc(-c2cc3cn([C@H]4C[C@H](O)[C@@H](CO)O4)c(=O)nc3o2)cc1 [CF1743]	18
CCCCCc1ccc(-c2cc3cn([C@H]4C[C@H](OC(=O)[C@@H](NC(=O)[C@@H]5CCCN5C(=O)[C@@H](N)C(C)C)C(C)C)[C@@H](COC(=O)[C@@H](NC(=O)[C@@H]5CCCN5C(=O)[C@@H](N)C(C)C)C(C)C)O4)c(=O)nc3o2)cc1	77000
CCCCCc1ccc(-c2cc3cn([C@H]4C[C@H](O)[C@@H](COC(=O)[C@@H](NC(=O)[C@@H]5CCCN5C(=O)[C@@H](N)C(C)C)C(C)C)O4)c(=O)nc3o2)cc1	1200

###

experiment: Aqueous solubility of the compound at 25 DegC after 24 hrs; format: physicochemical; settings: water
PARAMETER MEASURED: solubility at 24 h

> print(dat)
                    structure.smiles.string  value.reported
1  CCCCCc1ccc(-c2cc3cn([C@H]4C[C@H](OC(=O)[C@@H](NC(=O)[C@@H]5CCCN5C(=O)[C@@H](N)C(C)C)C(C)C)[C@@H](CO)O4)c(=O)nc3o2)cc1       5.2 mg/mL
2  CCCCCc1ccc(-c2cc3cn([C@H]4C[C@H](O)[C@@H](COC(=O)[C@@H](NC(=O)[C@@H]5CCCN5C(=O)[C@@H](N)CC(N)=O)C(C)C)O4)c(=O)nc3o2)cc1        39 mg/mL
3  CCCCCc1ccc(-c2cc3cn([C@H]4C[C@H](O)[C@@H](COC(=O)[C@@H](NC(=O)[C@@H]5CCCN5C(=O)[C@@H](N)CC(=O)O)C(C)C)O4)c(=O)nc3o2)cc1        15 mg/mL
4  CCCCCc1ccc(-c2cc3cn([C@H]4C[C@H](O)[C@@H](COC(=O)[C@@H](NC(=O)[C@@H]5CCCN5C(=O)[C@@H](N)CCCCN)C(C)C)O4)c(=O)nc3o2)cc1        55 mg/mL
